Target: T1, human MIC-1 receptor (hGFRAL, GDNF family receptor alpha like) (human, UniProt Q6UXV0 19-394)
T1 sequence (looked up): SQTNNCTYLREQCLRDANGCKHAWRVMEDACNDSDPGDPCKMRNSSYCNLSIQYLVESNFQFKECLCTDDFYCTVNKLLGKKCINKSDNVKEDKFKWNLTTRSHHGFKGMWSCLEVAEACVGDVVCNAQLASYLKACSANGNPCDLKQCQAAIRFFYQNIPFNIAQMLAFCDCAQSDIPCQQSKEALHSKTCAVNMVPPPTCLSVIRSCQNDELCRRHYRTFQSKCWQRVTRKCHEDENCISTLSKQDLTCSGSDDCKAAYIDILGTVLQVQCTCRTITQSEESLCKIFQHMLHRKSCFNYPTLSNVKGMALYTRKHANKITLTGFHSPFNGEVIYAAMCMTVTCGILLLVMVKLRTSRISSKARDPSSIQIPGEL
Assay: cell-based or functional assay
Listing: pERK EC50 (nM) of selected binders
Return type: number; implicit unit nM.

>>> value_observed("MIC-1 (SEQ ID NO: 1) (ligand) ARNGDHCPLGPGRCCRLHTVRASLEDLGWADWVLSPREVQVTMCIGACPSQFRAANMHAQIKTSLHRLKPDTVPAPCCVPASYNPMVLIQKTDTGVSLQTYDDLLAKDCHCI")
0.3

Okay, now this binder:
Problem: Item MIC-1(R2A, N3E, P11E) (ligand) AAEGDHCPLGEGRCCRLHTVRASLEDLGWADWVLSPREVQVTMCIGACPSQFRAANMHAQIKTSLHRLKPDTVPAPCCVPASYNPMVLIQKTDTGVSLQTYDDLLAKDCHCI has what recorded pERK EC50 (nM)?
Result: 0.4

Origin of measurements: patent US12006344
